FYI, the data here is from PubChem BioAssay (NCI).

- System: KM12 colon
- Assay Info: NCI-60 one-dose screen, 48 h (100 = growth as untreated, 0 = no growth, -100 = all killed)
- Measurement Parameters: 10 µM unless noted
This is part of a sample that, as a whole, favours compounds with a hit. Of some 83,000 tested, about 20% had one in any assay. Calls of active or inactive are those of the source. How the source made its calls: active means growth percent below 10; inactive means the rest.
Reported growth values for the following compounds.

Compound	growth
COc1ccc(-c2nn(-c3cccc(Cl)c3)cc2-c2cc(-c3ccc(Br)cc3)nc(N)n2)cc1	93.4% (inactive)
O=C(/C=C/c1cccs1)Nc1ncc(Cc2ccccc2F)s1	16.7% (inactive)
Cc1ccc2c(c1)=C/C(=C\c1cc(-c3ccccc3)oc1O)C(=O)N=2	100% (inactive)
COC(=O)/C=C1/SC(=Nc2cccc(OC)c2)N(CCc2c[nH]c3ccc(O)cc23)C1=O	53.5% (inactive)
COc1cc(OC)c(NC(=O)c2cc3ccccc3cc2O)cc1Cl	18.5% (inactive)
CCOC(=O)C1=C(N)Oc2c(sc3c(F)cccc23)C1c1ccc(O)cc1 (stereo not drawn)	24% (inactive)
CC(C)COc1nc2c(c(=O)n(C)c(=O)n2C)n1C	99.5% (inactive)
O=C(Nc1nc2cc(C(=O)N3CCN(C(c4ccccc4)c4ccccc4)CC3)ccc2o1)c1ccc(NC2CCCCC2)c([N+](=O)[O-])c1	51.4% (inactive)
Ic1ccc(OCCCCn2ccnc2)cc1	97.6% (inactive)
Nc1ncc(-c2ccc3ncnc(Nc4cccc(Cl)c4)c3c2)cn1	67.5% (inactive)
COc1ccc(F)cc1/C=C/C(=O)/C=C(/C=C/c1cc(F)ccc1OC)OB(F)F	73.6% (inactive)
C=C(C)[C@@H]1CC[C@]2(C(=O)N3CCOCC3)CC[C@]3(C)[C@H](CC[C@@H]4[C@@]5(C)C/C(=C/c6ccncc6)C(=O)C(C)(C)[C@@H]5CC[C@]43C)[C@@H]12	52.2% (inactive)
Nc1c(C(=O)Nc2ccccc2C(F)(F)F)sc2nc3c(cc12)CCC3	113% (inactive)
COc1ccc(/C=N/C2=C(C#N)C(c3ccccc3)c3ccc4ccccc4c3O2)cc1 (stereo not drawn)	17.5% (inactive)
c1cc2c(ccc3[nH]c(-c4ccc5[nH]ncc5c4)c4c(c32)CCCC4)n1	67.9% (inactive)
C=CCn1c(C)nc2ccc(Nc3nc(Nc4ccc5nc(C)n(CC=C)c5c4)c4ccccc4n3)cc21	-84.8% (active)
O=C1/C(=C/c2ccccc2O)CC/C1=C\c1ccccc1O	75.7% (inactive)
COCCOc1cc2ncnc(N3CCN(c4cc(S(C)(=O)=O)c(C)cc4Cl)CC3)c2cc1OCCOC	93.2% (inactive)
N=C(N)c1ccc(-c2ccc(-c3ccc(Cl)cc3Cl)s2)cc1	-87.3% (active)
CCC(C)N(CCNc1cc(OC)cc2cccnc12)CC(C)C (stereo not drawn)	97.5% (inactive)
Clc1ccc2c(c1)C(c1c[nH]c3ccccc13)(c1c[nH]c3ccccc13)CCO2	78.2% (inactive)
CCCCNC(=O)CC1=C(C)/C(=C/c2[nH]c(-c3ccc[nH]3)cc2OC)N=C1C	13.4% (inactive)
O=S(=O)(NCCNc1nccc(-c2c(-c3ccc(F)c(O)c3)nc3sccn23)n1)c1ccc(O)cc1	13.9% (inactive)
Oc1c(Br)cc(Br)c2ccc(Cn3cc(-c4ccc(C(F)(F)F)cc4)nn3)nc12	104% (inactive)
CCO/C=N/C1=C(C#N)C(c2ccc(Cl)cc2)c2sc3c(F)cccc3c2O1 (stereo not drawn)	42.2% (inactive)
C=CC(=O)N1CCN(c2cccc(Oc3nccc(Nc4nnc(-c5ccc(Br)cc5)s4)n3)c2)CC1	43.8% (inactive)
CC(C)C1=NOC(=O)C1=Cc1cn(-c2ccccc2)nc1-c1ccc(F)cc1	69.7% (inactive)
CN(/C(N)=N/N=C/c1c2ccccc2cc2ccccc12)C1CCCCC1	59.6% (inactive)
CC1CCc2c(C(=O)Nc3ncc(Cc4cccc([N+](=O)[O-])c4)s3)csc2C1 (stereo not drawn)	18.2% (inactive)
COc1ccc(CN2c3ccccc3Sc3ccccc32)cc1F	14% (inactive)
CCCCCC(/C=N\NC(=S)N/N=C/C(=C/c1ccccc1)CCCCC)=C\c1ccccc1	66.7% (inactive)
Cc1ccc2c(n1)C(=O)C(Br)=C(CC(C)C)C2=O	99.3% (inactive)
CC(C)(C)CC(C)(C)NC(=O)Nc1ncccc1OCc1ccccc1	94.5% (inactive)
CC1(C)COB(OCC(C)(C)COB2OCC(C)(C)CO2)OC1	103% (inactive)
Clc1cccc(Nc2ncnc3ccc(-c4cnc5[nH]ccc5c4)cc23)c1	72.6% (inactive)
CN(C)S(=O)(=O)c1cccc(C(=O)Nc2nc(-c3ccc(F)c(F)c3)cs2)c1	97.4% (inactive)
O=C(CN1CCOCC1)Nc1nc(-c2cc3ccccc3oc2=O)cs1	100% (inactive)
COc1ccc(/C=C(\C#N)n2nnc3ccc(Cl)cc32)cc1	39.3% (inactive)
